Test system: Nilaparvata lugens
Experiment: Insecticidal activities to plant hopper, spraying method
Type: in vivo
Conditions: in vivo
value_kind: Nilaparvata lugens Mortality (%) 500 ppm
Number in %, nothing else.

{"molecule": "CN=C(NCc1ccc(Cl)nc1)C(=Cc1ccc(Br)o1)[N+](=O)[O-]", "Nilaparvata lugens Mortality (%) 500 ppm": 36}
{"molecule": "CCC(c1ccc(Cl)nc1)N1CCN=C1C(=Cc1ccc[nH]1)[N+](=O)[O-] (racemic)", "Nilaparvata lugens Mortality (%) 500 ppm": 84}
{"molecule": "C[N+]1=C(C(=Cc2ccoc2)[N+](=O)[O-])N(Cc2cnc(Cl)s2)CC1.[Cl-]", "Nilaparvata lugens Mortality (%) 500 ppm": 100}
{"molecule": "N#CC(=Cc1oc(Cl)cc1Cl)C1=NCCN1Cc1ccc(Cl)nc1", "Nilaparvata lugens Mortality (%) 500 ppm": 100}
{"molecule": "CN=C(C(=Cc1ccc(Cl)s1)[N+](=O)[O-])N(C)Cc1ccc(Cl)nc1 [Compound 239]", "Nilaparvata lugens Mortality (%) 500 ppm": 34}
{"molecule": "C[N+]1=C(/C(=C\\c2ccc[nH]2)[N+](=O)[O-])N(Cc2cnc(Cl)s2)CC1.[Cl-]", "Nilaparvata lugens Mortality (%) 500 ppm": 100}
{"molecule": "C[N+]1=C(C(=Cc2ccc(CO)s2)[N+](=O)[O-])N(Cc2ccc(Cl)nc2)CC1.[Cl-]", "Nilaparvata lugens Mortality (%) 500 ppm": 100}

Any idea what its Nilaparvata lugens Mortality (%) 500 ppm is? The molecule is Cn1cccc1C=C(C1=[N+](C)CCN1Cc1ccc(Cl)nc1)[N+](=O)[O-].[Cl-]
100
